Where do these numbers come from? They come from PubChem BioAssay.

# method-notes: Plasmodium falciparum growth inhibition, primary screen, strain 3D7, DAPI fluorescence, 100 nL (AID 1184);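 also: parasites grown inside human red blood cells in medium with human serum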
# measurement-parameters: P. falciparum 3D7 growth, 3 d, higher = more signal
Recorded z-score for the following molecules
Would you mind answering with just the numeric figure?

Here are 10 molecules together with their reported answers.
INSERT INTO results (molecule, quantity, test_value) VALUES
  ('COc1cc(NN2C(C(O)c3ccco3)C=CC3C(=O)N(c4ccccc4)C(=O)C32)cc(OC)c1OC (stereo not given)', 'z-score', -0.372),
  ('COc1cccc(-c2cccc(=O)o2)c1', 'z-score', 0.0459),
  ('COc1ccc([Si](C)(C)[C@H]2[C@H](CCO)O[C@@]3(C(=O)N(Cc4ccc(N(C=O)c5ccccc5)cc4)c4ccccc43)[C@@H]2C)cc1', 'z-score', -1.93),
  ('C=CCN1C(=O)[C@]2(O[C@H](CCn3cc([C@H](O)c4ccccc4)nn3)[C@@H]([Si](C)(C)c3ccc(OC)cc3)[C@@H]2C)c2ccccc21', 'z-score', -1.69),
  ('O=C1N(Cc2ccccc2)c2ccccc2[C@@H]2OC(c3ccc(OCCCO)cc3)=N[C@]12CCS(=O)(=O)c1ccccc1', 'z-score', -2.13),
  ('O=C(NC1CC1)[C@@H]1c2ccccc2C(=O)N(Cc2ccccc2Cl)[C@H]1c1ccc(CO)cc1', 'z-score', -0.46),
  ('C=C[C@H](OC)[C@@H](OC(=O)Nc1ccc(OC)cc1)c1ccc(O)c(F)c1', 'z-score', -0.343),
  ('O=C(OCc1ccccc1)C1=CCC2c3[nH]c4ccccc4c3C(=O)C1N2S(=O)(=O)c1ccccc1[N+](=O)[O-] (stereo not given)', 'z-score', -1.07),
  ('O=C1c2ccccc2[C@](Cc2ccccc2I)(C(=O)NCC(F)(F)F)[C@H](c2ccc(CO)cc2)N1Cc1ccccc1Cl', 'z-score', -0.562),
  ('CCOC(=O)C[C@H]1[C@H](OC(=O)c2cc3ccccc3oc2=O)[C@@H](NC(=O)c2ccccc2)c2cc(OCCCO)ccc2N1C(=O)c1ccc2ccccc2n1', 'z-score', -0.566);

IN: Requested read-out: z-score. Entry: C=C(COC)C(=O)CC[C@@H](OC(C)=O)c1ccc(CO)o1
OUT: 0.216

IN: Requested read-out: z-score. Entry: CC(C)=CCCC(C)=CC(O)C1C=CC2C(=O)N(C)C(=O)C2N1Nc1ccccc1 (stereo not given)
OUT: -0.49

IN: Requested read-out: z-score. Entry: C[C@H]1C2[C@H](Cc3ccccc3)NC(=O)[C@]23C(=O)N[C@H](Cc2ccccc2)C(=O)N2CCC[C@H]2C(=O)NC/C=C\C/C=C/C3[C@@H]2O[C@]12C (stereo not given in full)
OUT: -0.227

IN: Requested read-out: z-score. Entry: COc1ccc(-c2cc3c(c(-c4ccc(Oc5ccccc5)cc4)n2)[Si](C(C)C)(C(C)C)OC3)cn1
OUT: -1.34

IN: Requested read-out: z-score. Entry: COc1cc2c(cc1OC)CN(C(=O)[C@@H]1[C@H]3C(=O)O[C@H](c4ccccc4)[C@H](c4ccccc4)N3[C@H](c3ccccc3OCCO)[C@@]13C(=O)Nc1ccc(C#CCCO)cc13)CC2
OUT: -2.18

---

# method-notes: basal MM1S mitochondrial membrane potential changes, profiling panel, cell-based, JC-1 fluorescence, 24 h, 100 nL compound (AID 1170); also: test concentration not given here
# measurement-parameters: higher = more signal
Recorded z-score for the following compounds
Would you mind answering with just the numeric figure?

Here are 3 compounds together with their reported answers.
INSERT INTO assay_data (compound, quantity, test_value) VALUES
  ('COC(=O)[C@@]1(Cc2ccc(OC)cc2)[C@H]2c3cc(C(=O)N4CCCC4)n(Cc4ccc(C)c(F)c4F)c3C[C@H]2CN1C(=O)c1ccccc1', 'z-score', -1.51),
  ('COc1cc(Br)cc(C(O)C2C=CC3C(=O)N(C)C(=O)C3N2N2CCCCC2)c1OC (centres undefined)', 'z-score', -0.129),
  ('COC(=O)[C@@]1(Cc2ccccc2)[C@H]2c3cc(C(=O)N(C)C)n(Cc4ccsc4Br)c3C[C@H]2CN1C(=O)c1ccccc1', 'z-score', -2);

IN: Requested read-out: z-score. Entry: CC(C)NC(=O)[C@@H]1c2ccccc2C(=O)N(C2Cc3ccccc3C2)[C@H]1c1ccc(CO)cc1
OUT: -0.096

IN: Requested read-out: z-score. Entry: C=CCOC(=O)[C@H]1[C@@H]2C(=O)O[C@@H](c3ccccc3)[C@@H](c3ccccc3)N2[C@@H](c2ccc(OCCOC(=O)[C@@H]3C[C@@H]4C(=O)N[C@@H](CCCCNC(C)=O)C(=O)N4[C@@H]3c3ccc(O)cc3)cc2)[C@]12C(=O)Nc1ccccc12
OUT: -0.95
